Overview of recorded Cmax for various molecules
experiment: Pharmacokinetic assay in Balb/c mice (plasma and brain tissue); format: in vivo; settings: mouse, po; brain tissue, 5 mg/kg p.o., male Balb/c mice; read-out: Plasma concentration Cmax
// units = ng/mL; emit number, no label

1. C[C@@]1(O)CC[C@H]2[C@H](CC[C@@H]3[C@@H]2CC[C@@]2(C)[C@H]3[C@H](C3CC3)C[C@@H]2C(=O)Cn2ccc(C#N)n2)C1 = 724
2. C[C@@H]1C[C@H](C(=O)Cn2cc(C#N)c(Cl)n2)[C@@]2(C)CC[C@H]3[C@@H](CC[C@@H]4C[C@](C)(O)CC[C@@H]43)[C@H]12 = 892

Q: What value of Cmax has been recorded for this entry: `CC[C@@H]1C[C@H](C(=O)Cn2nccn2)[C@@]2(C)CC[C@H]3[C@@H](CC[C@@H]4C[C@](C)(O)CC[C@@H]43)[C@H]12`
Ans: 1050

Q: What value of Cmax has been recorded for this entry: `C[C@@]1(O)CC[C@H]2[C@H](CC[C@@H]3[C@@H]2CC[C@@]2(C)[C@H]3[C@@H]3C[C@@H]3[C@@H]2C(=O)COc2cnc(C(F)(F)F)nc2)C1`
Ans: 563
